Listed here are variants together with their documented polymerase ribozyme fitness (log ratio).
B1: TPR 5TU (parent)
chain: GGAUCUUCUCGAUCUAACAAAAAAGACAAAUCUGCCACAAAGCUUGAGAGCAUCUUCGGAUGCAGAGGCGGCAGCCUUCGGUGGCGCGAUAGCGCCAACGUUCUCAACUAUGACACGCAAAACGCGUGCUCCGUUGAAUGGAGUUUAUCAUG

variants of: B1; experiment: polymerase ribozyme fitness, log enrichment relative to wild type (log ratio); higher = more active; in vitro selection for triplet polymerase activity
Variants at the floor of the assay were thinned out.
Just the number, please, no unit after it.

Value lookup for polymerase ribozyme fitness (log ratio); key = A21G G46U
0.452

Value lookup for polymerase ribozyme fitness (log ratio); key = A3U C5G A19U C36U G83A
-3.1

Value lookup for polymerase ribozyme fitness (log ratio); key = U15C A21C U56C G83A
-0.11

Value lookup for polymerase ribozyme fitness (log ratio); key = C57G G59U C85U
-1.11

Value lookup for polymerase ribozyme fitness (log ratio); key = A40C U135A
-0.385

Value lookup for polymerase ribozyme fitness (log ratio); key = A3U A23C
-3.76
